# TARGET_ENTITY: p52p52 homodimer (Homo sapiens, UniProt Q00653 4-332)
# Sequence: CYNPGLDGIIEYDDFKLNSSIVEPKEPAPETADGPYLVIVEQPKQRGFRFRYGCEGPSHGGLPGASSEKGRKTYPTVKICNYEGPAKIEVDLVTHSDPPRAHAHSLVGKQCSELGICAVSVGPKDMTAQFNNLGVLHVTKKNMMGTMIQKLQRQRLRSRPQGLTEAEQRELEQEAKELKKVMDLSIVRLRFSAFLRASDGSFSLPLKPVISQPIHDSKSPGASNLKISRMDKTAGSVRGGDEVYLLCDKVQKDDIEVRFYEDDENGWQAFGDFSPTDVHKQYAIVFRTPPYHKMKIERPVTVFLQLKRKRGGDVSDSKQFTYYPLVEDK
# PROCEDURE_DETAILS: protein binding microarray; high values mean tight binding
# CONDITION_CONTEXT: dsDNA, one strand shown
Rule: binding signal of 0.4 z-score or more gives true (1); anything lower gives false (0).

Input: Determine whether this sequence has binding signal no lower than 0.4 z-score: `AGATTGGTCCT`
Output: false (0)

Input: Determine whether this sequence has binding signal no lower than 0.4 z-score: `GAAAGTTCCCT`
Output: true (1)

Input: I'd appreciate it if you could say whether `GGAGAACCCCC` has binding signal at least equal to 0.4 z-score.
Output: true (1)

Input: Hi, just wondering whether `CGGGTGCCCCC` shows binding signal of 0.4 z-score or higher.
Output: false (0)

Input: Check this sequence for binding signal at or above 0.4 z-score: `GAAGAGCCCCT`
Output: true (1)

Input: Does `CGAAAGTTCCT` have a reported binding signal of at least 0.4 z-score?
Output: false (0)

Input: Entry `CGATTGTCCCT` : is its binding signal no less than 0.4 z-score?
Output: true (1)

Input: Is reported binding signal greater than or equal to 0.4 z-score here: `AGGGTGCCCCT`
Output: false (0)

Input: Can `AGGTAAACCCC` be said to have binding signal at or above 0.4 z-score?
Output: true (1)

Input: Check this sequence for binding signal at or above 0.4 z-score: `GGGGGGCCCCT`
Output: true (1)

Input: hey, is binding signal for this one >= 0.4 z-score? `AAGATAATCCT`
Output: false (0)

Input: Evaluate `CAGAATACCCT` : binding signal at minimum 0.4 z-score?
Output: true (1)

Input: Can `CGGTGCCTCCT` be said to have binding signal at or above 0.4 z-score?
Output: false (0)

Input: Form field: binding signal at least 0.4 z-score? Entry: `CAGTGGTCCCC`
Output: false (0)

Input: Please check the record `AAATTGTCCCT` and state if its binding signal is at or above 0.4 z-score.
Output: true (1)

Input: hey, is binding signal for this one >= 0.4 z-score? `GGAAGAACCCC`
Output: true (1)

Input: Hi team, for `AAAATAACCCC` , is the recorded binding signal at or above 0.4 z-score?
Output: true (1)

Input: Tell me whether binding signal is at least 0.4 z-score here: `AAAATGATCCC`
Output: false (0)
